# Tested on: A431
# measurement protocol: filipin (cholesterol) integrated intensity within LBPA endosomes, Z-score; higher = more cholesterol in LBPA endosomes
# cond: compound concentration in added solution (µM; 5 µl added to 20 µl cells): 10; 18 h
Counter-ions that a name gives are not always drawn.
Measured filipin (z-score) values are reported for all entries that follow.
Keep the answer to the number alone.

# annotated cases, reported filipin (z-score) shown
>>> result_value("O=C(CCNNC(=O)c1ccncc1)NCc1ccccc1 [Nialamide]")
-0.403
>>> result_value("CC(COc1ccccc1)N(CCCl)Cc1ccccc1 (centres undefined) [Phenoxybenzamine hydrochloride]")
-0.396
>>> result_value("CC(=O)Nc1nnc(S(N)(=O)=O)s1 [Acetazolamide]")
-0.395

Then this compound:
Query (compound): Cc1ccc(C(=O)c2ccc(CC(=O)O)n2C)cc1 [Tolmetin sodium salt dihydrate] ; field requested: filipin (z-score) -0.412
